molecular target: INSR (human); experiment: KINOMEscan competition binding; details: compound 10.0 µM
Each record here notes measured kinase still bound, per cent of control.
State the answer as a number, implicitly in %.

Answered examples (3):
> print(dat)
                                smiles.text  units.label  numeric.value
1  C=CC(=O)Nc1cccc(Nc2nc(N[C@H]3CC[C@H](N(C)C)CC3)nc3c2ncn3C(C)C)c1            %             69
2  COc1cc(C(=O)NC2CCN(C)CC2)ccc1Nc1ncc2c(n1)N(C1CCCC1)CCC(=O)N2C(C)C            %            100
3  C=CC(=O)Nc1cccc(Oc2nc(Nc3ccc(N4CCN(C)CC4)cc3OC)ncc2Cl)c1            %             17

Problem: Check INSR (human) data and give kinase still bound, per cent of control for O=C(NOC[C@H](O)CO)c1ccc(F)c(F)c1Nc1ccc(I)cc1F .
Solution: 92

Problem: Check INSR (human) data and give kinase still bound, per cent of control for Cc1ccc(NC(=O)c2cccc(C(C)(C)C#N)c2)cc1Nc1ccc2ncn(C)c(=O)c2c1 .
Solution: 100

###

Each record here notes measured kinase still bound, per cent of control.
molecular target: UniProtKB Q9BZL6; experiment: KINOMEscan competition binding; conditions: compound 10.0 µM
Sequence (Q9BZL6 whole entry, looked up): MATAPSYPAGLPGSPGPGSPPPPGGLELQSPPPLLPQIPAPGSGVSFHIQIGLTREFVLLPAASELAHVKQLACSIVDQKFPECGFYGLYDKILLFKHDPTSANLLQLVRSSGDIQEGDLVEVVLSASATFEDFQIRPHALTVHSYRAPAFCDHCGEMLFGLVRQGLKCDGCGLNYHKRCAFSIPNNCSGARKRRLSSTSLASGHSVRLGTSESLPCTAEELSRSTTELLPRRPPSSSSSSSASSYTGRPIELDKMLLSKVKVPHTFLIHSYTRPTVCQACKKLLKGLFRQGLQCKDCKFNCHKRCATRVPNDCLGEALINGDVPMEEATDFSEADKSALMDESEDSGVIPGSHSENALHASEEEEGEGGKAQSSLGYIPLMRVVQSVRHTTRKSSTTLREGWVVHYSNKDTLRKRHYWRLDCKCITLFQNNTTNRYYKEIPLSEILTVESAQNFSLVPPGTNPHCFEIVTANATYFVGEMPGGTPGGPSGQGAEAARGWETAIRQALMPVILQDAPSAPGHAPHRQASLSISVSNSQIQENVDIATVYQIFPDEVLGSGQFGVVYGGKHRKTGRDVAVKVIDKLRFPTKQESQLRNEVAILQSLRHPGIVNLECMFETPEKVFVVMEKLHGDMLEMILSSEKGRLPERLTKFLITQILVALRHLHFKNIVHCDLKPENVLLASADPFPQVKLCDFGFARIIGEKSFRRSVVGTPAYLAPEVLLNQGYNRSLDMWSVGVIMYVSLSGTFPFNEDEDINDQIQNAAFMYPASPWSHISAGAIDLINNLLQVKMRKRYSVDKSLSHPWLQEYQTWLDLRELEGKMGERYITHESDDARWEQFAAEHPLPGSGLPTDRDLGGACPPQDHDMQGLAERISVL
Output should be the measured figure followed by the unit it is expressed in.

Answered examples (2):
> print(dat)
                                smiles.text            system                                   metric  result
1  Cc1ccc(C(=O)Nc2cccc(C(F)(F)F)c2)cc1Nc1cncc(C(N)=O)c1  UniProtKB Q9BZL6  kinase still bound, per cent of control    100%
2  CCCS(=O)(=O)Nc1ccc(F)c(C(=O)c2c[nH]c3ncc(-c4ccc(Cl)cc4)cc23)c1F  UniProtKB Q9BZL6  kinase still bound, per cent of control     95%

Problem: Kindly indicate its recorded kinase still bound, per cent of control. Item: O=C(O)c1ccc(Nc2ncc3c(n2)-c2ccc(Cl)cc2C(c2c(F)cccc2F)=NC3)cc1
Solution: 92%

Problem: Kindly indicate its recorded kinase still bound, per cent of control. Item: CCN1CCN(Cc2ccc(Nc3ncc4c(n3)N(C)c3ccccc3C(=O)N4C)cc2C(F)(F)F)CC1
Solution: 25%

Problem: Kindly indicate its recorded kinase still bound, per cent of control. Item: Nc1ccc(-c2ccc3ncc4ccc(=O)n(-c5cccc(C(F)(F)F)c5)c4c3c2)cn1
Solution: 100%

Problem: Kindly indicate its recorded kinase still bound, per cent of control. Item: O=C(NOC[C@H](O)CO)c1ccc(F)c(F)c1Nc1ccc(I)cc1F
Solution: 100%

Problem: Kindly indicate its recorded kinase still bound, per cent of control. Item: Cc1cc([C@@H](C)Nc2ccccc2C(=O)O)c2nc(N3CCOCC3)cc(=O)n2c1
Solution: 100%

###

Each record here notes measured kinase still bound, per cent of control.
molecular target: HUNK (human) (UniProt P57058); experiment: KINOMEscan competition binding; conditions: compound 10.0 µM
Sequence (P57058 whole entry, looked up): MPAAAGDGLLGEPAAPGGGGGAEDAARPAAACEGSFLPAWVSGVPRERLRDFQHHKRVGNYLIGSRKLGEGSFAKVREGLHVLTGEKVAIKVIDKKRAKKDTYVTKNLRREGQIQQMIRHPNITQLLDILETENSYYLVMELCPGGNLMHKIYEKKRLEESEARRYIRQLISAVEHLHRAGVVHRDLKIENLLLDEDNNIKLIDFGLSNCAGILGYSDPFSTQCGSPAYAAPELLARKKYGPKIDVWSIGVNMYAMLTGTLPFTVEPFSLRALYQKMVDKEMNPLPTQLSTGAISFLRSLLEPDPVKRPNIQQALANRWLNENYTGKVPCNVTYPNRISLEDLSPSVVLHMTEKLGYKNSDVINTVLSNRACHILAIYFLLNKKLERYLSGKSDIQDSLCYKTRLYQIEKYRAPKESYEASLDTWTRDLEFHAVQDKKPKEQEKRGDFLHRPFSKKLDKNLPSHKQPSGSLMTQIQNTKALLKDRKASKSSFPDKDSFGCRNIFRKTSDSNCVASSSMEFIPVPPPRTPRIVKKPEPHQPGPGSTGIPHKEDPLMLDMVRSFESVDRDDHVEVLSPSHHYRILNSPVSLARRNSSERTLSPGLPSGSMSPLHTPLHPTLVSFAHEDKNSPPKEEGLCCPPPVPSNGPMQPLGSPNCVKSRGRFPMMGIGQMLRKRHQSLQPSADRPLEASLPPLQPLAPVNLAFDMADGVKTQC
State the answer as a number, implicitly in %.

Answered examples (5):
> print(dat)
                                smiles.text                                   metric  numeric.value
1  O=C1Nc2ccc(I)cc2/C1=C/c1cc(Br)c(O)c(Br)c1  kinase still bound, per cent of control            2.8
2  Cc1cc([C@@H](C)Nc2ccccc2C(=O)O)c2nc(N3CCOCC3)cc(=O)n2c1  kinase still bound, per cent of control             81
3    N#Cc1c(NC(=O)c2cccc3ccccc23)sc2c1CCCC2  kinase still bound, per cent of control             95
4  Cn1c(=O)n(-c2ccc(C(C)(C)C#N)cc2)c2c3cc(-c4cnc5ccccc5c4)ccc3ncc21  kinase still bound, per cent of control            100
5  O=C(NOC[C@H](O)CO)c1ccc(F)c(F)c1Nc1ccc(I)cc1F  kinase still bound, per cent of control            100

Problem: Check HUNK (human) (UniProt P57058) data and give kinase still bound, per cent of control for Cc1ccc(NC(=O)c2cccc(C(C)(C)C#N)c2)cc1Nc1ccc2ncn(C)c(=O)c2c1 .
Solution: 100

Problem: Check HUNK (human) (UniProt P57058) data and give kinase still bound, per cent of control for Nc1ccc(-c2ccc3ncc4ccc(=O)n(-c5cccc(C(F)(F)F)c5)c4c3c2)cn1 .
Solution: 100

Problem: Check HUNK (human) (UniProt P57058) data and give kinase still bound, per cent of control for COc1cc(C(=O)NC2CCN(C)CC2)ccc1Nc1ncc2c(n1)N(C1CCCC1)CCC(=O)N2C(C)C .
Solution: 100

Problem: Check HUNK (human) (UniProt P57058) data and give kinase still bound, per cent of control for O=C(NC1CC1)c1cccc(-c2ccc3c(NC(=O)C4CC4)n[nH]c3c2)c1 .
Solution: 64

###

Each record here notes measured kinase still bound, per cent of control.
target: MAPK8 (human); assay: KINOMEscan competition binding; details: compound 10.0 µM
State the answer as a number, implicitly in %.

Answered examples (5):
> print(dat)
                                smiles.text                                   metric  numeric.value
1  O=C1Nc2ccc(I)cc2/C1=C/c1cc(Br)c(O)c(Br)c1  kinase still bound, per cent of control             86
2  CC[C@@H]1C(=O)N(C)c2cnc(Nc3ccc(C(=O)NC4CCN(C)CC4)cc3OC)nc2N1C1CCCC1  kinase still bound, per cent of control            100
3  C=CC(=O)Nc1cc(NC(=O)c2ccc(C)c(NC(=O)c3ccno3)c2)cc(C(F)(F)F)c1  kinase still bound, per cent of control            100
4  C[C@@H](Oc1cc(-n2cnc3ccc(CN4CCN(C)CC4)cc32)sc1C(N)=O)c1ccccc1C(F)(F)F  kinase still bound, per cent of control            100
5  O=C(NOC[C@H](O)CO)c1ccc(F)c(F)c1Nc1ccc(I)cc1F  kinase still bound, per cent of control             92

Problem: Kindly indicate its recorded kinase still bound, per cent of control. Item: Nc1ccc(-c2ccc3ncc4ccc(=O)n(-c5cccc(C(F)(F)F)c5)c4c3c2)cn1
Solution: 60

###

target: IKBKE (human); test: KINOMEscan competition binding; conditions: compound 10.0 µM
Each record here notes measured kinase still bound, per cent of control.
Output should be the measured figure followed by the unit it is expressed in.

Problem: Kindly indicate its recorded kinase still bound, per cent of control. Item: C=CC(=O)Nc1cccc(Nc2nc(N[C@H]3CC[C@H](N(C)C)CC3)nc3c2ncn3C(C)C)c1
Solution: 95%

Problem: Kindly indicate its recorded kinase still bound, per cent of control. Item: Cc1ccc2nc(NCCN)c3ncc(C)n3c2c1
Solution: 100%

Problem: Kindly indicate its recorded kinase still bound, per cent of control. Item: C=CC(=O)Nc1cccc(Oc2nc(Nc3ccc(N4CCN(C)CC4)cc3OC)ncc2Cl)c1
Solution: 100%

###

target: DCLK1 (human); assay: KINOMEscan competition binding; settings: compound 10.0 µM
Threshold 80%: kinase still bound, per cent of control strictly smaller gives 1 (yes), otherwise 0 (no).

> print(dat)
                                smiles.text  label.class
1  C=CC(=O)Nc1cc(NC(=O)c2ccc(C)c(NC(=O)c3ccno3)c2)cc(C(F)(F)F)c1       0 (no)

Problem: For the compound Cc1ccc2nc(NCCN)c3ncc(C)n3c2c1 , is kinase still bound, per cent of control under 80%?
Solution: 0 (no)

Problem: For the compound N#Cc1c(NC(=O)c2cccc3ccccc23)sc2c1CCCC2 , is kinase still bound, per cent of control under 80%?
Solution: 0 (no)

Problem: For the compound C=CC(=O)Nc1cccc(Oc2nc(Nc3ccc(N4CCN(C)CC4)cc3OC)ncc2Cl)c1 , is kinase still bound, per cent of control under 80%?
Solution: 1 (yes)

###

molecular target: TNIK (human); experiment: KINOMEscan competition binding; settings: compound 10.0 µM
METRIC: kinase still bound, per cent of control (%)
State the answer as a number, implicitly in %.

Answered examples (5):
> print(dat)
                                   molecule  numeric.value
1  CCC(=O)N1CCN(c2ccc(-n3c(=O)ccc4cnc5ccc(-c6cnc7ccccc7c6)cc5c43)cc2C(F)(F)F)CC1             39
2  COc1cc(C(=O)NC2CCN(C)CC2)ccc1Nc1ncc2c(n1)N(C1CCCC1)C(C)CC(=O)N2C (centres undefined)            100
3    N#Cc1c(NC(=O)c2cccc3ccccc23)sc2c1CCCC2            100
4  Cn1c(=O)n(-c2ccc(C(C)(C)C#N)cc2)c2c3cc(-c4cnc5ccccc5c4)ccc3ncc21            100
5  COc1cc(C(=O)NC2CCN(C)CC2)ccc1Nc1ncc2c(n1)N(C1CCCC1)CCC(=O)N2C(C)C            100

Problem: Check TNIK (human) data and give kinase still bound, per cent of control for CCOc1cc2ncc(C#N)c(Nc3ccc(OCc4ccccn4)c(Cl)c3)c2cc1NC(=O)/C=C/CN(C)C .
Solution: 6

Problem: Check TNIK (human) data and give kinase still bound, per cent of control for O=C(NOC[C@H](O)CO)c1ccc(F)c(F)c1Nc1ccc(I)cc1F .
Solution: 100

Problem: Check TNIK (human) data and give kinase still bound, per cent of control for COc1cc(N2CCN(C)CC2)ccc1Nc1nc(N)c(C(=O)c2c(Cl)cccc2Cl)s1 .
Solution: 69

Problem: Check TNIK (human) data and give kinase still bound, per cent of control for O=C1Nc2ccc(I)cc2/C1=C/c1cc(Br)c(O)c(Br)c1 .
Solution: 2.7

Problem: Check TNIK (human) data and give kinase still bound, per cent of control for O=C(O)c1ccc(Nc2ncc3c(n2)-c2ccc(Cl)cc2C(c2c(F)cccc2F)=NC3)cc1 .
Solution: 61

Problem: Check TNIK (human) data and give kinase still bound, per cent of control for CCN1CCN(Cc2ccc(Nc3ncc4c(n3)N(C)c3ccccc3C(=O)N4C)cc2C(F)(F)F)CC1 .
Solution: 100

Problem: Check TNIK (human) data and give kinase still bound, per cent of control for CN(C)C/C=C/C(=O)Nc1cccc(Nc2ncc3c(n2)N(C)c2ccccc2C(=O)N3C)c1 .
Solution: 29
